targetSystem: T1, recombinant BACE1 (BACE1 extracellular domain, R&D Systems Cat#931-AS) (UniProt P56817 22-457)
T1 construct: extracellular domain; also called BACE1 extracellular domain protein
T1 sequence (P56817 22-457): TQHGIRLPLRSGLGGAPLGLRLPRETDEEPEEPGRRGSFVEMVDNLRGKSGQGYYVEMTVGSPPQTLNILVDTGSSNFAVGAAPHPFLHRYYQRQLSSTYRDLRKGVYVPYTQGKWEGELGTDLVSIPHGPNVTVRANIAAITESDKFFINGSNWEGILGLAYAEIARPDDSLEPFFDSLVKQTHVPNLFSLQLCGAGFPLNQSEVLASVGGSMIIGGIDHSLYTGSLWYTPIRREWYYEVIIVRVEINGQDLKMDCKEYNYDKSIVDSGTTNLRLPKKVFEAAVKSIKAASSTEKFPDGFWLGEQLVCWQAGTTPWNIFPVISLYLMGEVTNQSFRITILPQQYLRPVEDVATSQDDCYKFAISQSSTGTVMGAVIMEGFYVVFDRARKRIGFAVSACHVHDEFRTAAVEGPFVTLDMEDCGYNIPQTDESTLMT
assayComment: SPR Biacore
Measured koff of individual entries
Report the figure in s⁻¹ without appending any unit label.

Some solved cases for reference:
{"binder": "2H8.37 (antibody, human IgG1, V domains shown, human IgG1/kappa; also called 2H8_HC + 2H8_LCvar7) VH: EVQLQQSGPELVKPGASVKLSCKASGYTFTNFWIHWLKQRPGQGLEWIGMIDPSDSYTKYNQKFKAKATLTVDTSSSTTYMHLSSLTSEDSAVYYCARSGVAFPYWGQRTLVTVSA VL: DILMTQSQKFMSTSVGDRVSVTCKASQNVGRNVAWYQQISGQSPKPLIYSASHRYSGVPDRFTGSGSGTDFTLTISNVQSEDLVEFFCQQYNSYPYTFGGGTKLEIK", "readingUnit": "s⁻¹", "recordedResult": 0.000331}
{"binder": "2H8.35 (antibody, human IgG1, V domains shown, human IgG1/kappa; also called 2H8_HCvar5 + 2H8_LCvar6) VH: EVQLQQPGAEVVRPGTSVKLSCKASGYTFTNYWMHWVKQRPGQGLEWIGMIDPSDNYTKYNQKLKGKATLTVDTSSSTANMHVNSLTSEDSAVYFCARSGVAFPYWGQGTLVTVSA VL: DIQMTQSQKFMSKSVGDRVSVTCKASQNVGSNVAWYQQKSGQSPKSLIYSASHRYSGVPDRFTGSGSGTDFTLTISNVQSEDLADYFCQQYNSYPYTFGGGTRLEIK", "readingUnit": "s⁻¹", "recordedResult": 0.000171}
{"binder": "2H8.18 (antibody, human IgG1, V domains shown, human IgG1/kappa; also called 2H8_HCvar6 + 2H8_LCvar3) VH: EVQLQQSGAELVRPGTSVKLSCKASGYTFNNYWMHWVKQRPGQGLEWIGMIDPSDDDIKNNQKFKGKATLTVDTSSSTAYMQLISLTSEDSAVYYCARSGVALPYWGQGTLVTVSA VL: DIQMTQSQKFMSTSIGDRVSVTCKASQNVGTNVAWYQQKPGQSPKSLIYSASHWYSGVPDRFTGSGSGTDFTLTISNVQSEDLAEYFCQQYNSYPYTFGGGTKLEIK", "readingUnit": "s⁻¹", "recordedResult": 0.00039}
{"binder": "2H8.36 (antibody, human IgG1, V domains shown, human IgG1/kappa; also called 2H8_HCvar6 + 2H8_LCvar6) VH: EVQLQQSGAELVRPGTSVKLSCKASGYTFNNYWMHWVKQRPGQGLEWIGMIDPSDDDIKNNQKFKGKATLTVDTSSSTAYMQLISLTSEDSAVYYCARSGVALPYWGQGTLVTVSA VL: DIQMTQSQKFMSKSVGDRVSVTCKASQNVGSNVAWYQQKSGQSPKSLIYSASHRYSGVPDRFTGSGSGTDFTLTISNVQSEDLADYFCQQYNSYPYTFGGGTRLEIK", "readingUnit": "s⁻¹", "recordedResult": 0.000273}

Now for another entry.
Any idea what koff was measured for 2H8.33 (antibody, human IgG1, V domains shown, human IgG1/kappa; also called 2H8_HCvar3 + 2H8_LCvar6) VH: EVQLQQSGAELVRPGTSVKLSCKASGYTFTSYWIHWVKQRPGQGLEWIGMIDPSDSYTKYNQKFKDKATLTVDTSSSTTYMHLSSLTSEDSAVYYCARSGVAFPYWGQRTLVTVSA VL: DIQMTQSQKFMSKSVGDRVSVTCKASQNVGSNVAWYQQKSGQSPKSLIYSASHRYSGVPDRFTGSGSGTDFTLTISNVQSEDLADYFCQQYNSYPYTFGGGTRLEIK ?
0.000171
